Biological target: T1, CAPRIN-1 protein expressed on the membrane surface of human cancer cells (human, UniProt Q14444 2-709)
T1 sequence (looked up): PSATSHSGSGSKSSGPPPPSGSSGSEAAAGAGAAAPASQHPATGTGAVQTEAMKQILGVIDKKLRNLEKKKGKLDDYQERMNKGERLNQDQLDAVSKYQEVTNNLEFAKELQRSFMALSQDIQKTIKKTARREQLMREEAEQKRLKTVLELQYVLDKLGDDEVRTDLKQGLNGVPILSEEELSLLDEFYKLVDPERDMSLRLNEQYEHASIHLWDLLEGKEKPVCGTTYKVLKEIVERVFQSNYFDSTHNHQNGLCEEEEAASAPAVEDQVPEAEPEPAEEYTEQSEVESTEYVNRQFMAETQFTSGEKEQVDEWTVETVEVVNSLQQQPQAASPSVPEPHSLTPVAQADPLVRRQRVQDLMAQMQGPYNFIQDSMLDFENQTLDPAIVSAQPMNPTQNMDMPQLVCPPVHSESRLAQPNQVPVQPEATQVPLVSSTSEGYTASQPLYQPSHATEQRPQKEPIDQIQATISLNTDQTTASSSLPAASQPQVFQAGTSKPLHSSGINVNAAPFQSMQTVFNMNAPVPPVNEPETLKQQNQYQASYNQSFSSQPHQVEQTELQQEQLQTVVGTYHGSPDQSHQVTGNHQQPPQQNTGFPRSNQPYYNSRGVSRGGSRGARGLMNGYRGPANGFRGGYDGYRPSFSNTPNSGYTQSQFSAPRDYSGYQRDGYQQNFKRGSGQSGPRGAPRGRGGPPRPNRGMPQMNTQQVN
Assay: cell-based or functional assay
Please respond with reported ADCC cytotoxic activity (51Cr release) on Hep3B for every item in the list.

Which ADCC cytotoxic activity (51Cr release) on Hep3B reading was recorded for the binder humanized antibody #0 (antibody, V domains shown) VH: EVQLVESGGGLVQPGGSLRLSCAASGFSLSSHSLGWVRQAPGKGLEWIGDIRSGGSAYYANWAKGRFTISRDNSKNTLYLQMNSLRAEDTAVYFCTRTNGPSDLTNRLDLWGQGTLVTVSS VL: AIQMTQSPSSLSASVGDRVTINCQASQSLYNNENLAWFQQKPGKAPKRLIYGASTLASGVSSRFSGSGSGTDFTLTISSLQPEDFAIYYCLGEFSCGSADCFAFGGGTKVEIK ?
≥ 21%

Now give it for humanized antibody #3 (antibody, V domains shown) VH: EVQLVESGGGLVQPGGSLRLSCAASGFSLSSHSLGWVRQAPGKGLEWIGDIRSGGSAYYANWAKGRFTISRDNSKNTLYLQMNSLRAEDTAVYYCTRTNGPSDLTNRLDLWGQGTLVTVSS VL: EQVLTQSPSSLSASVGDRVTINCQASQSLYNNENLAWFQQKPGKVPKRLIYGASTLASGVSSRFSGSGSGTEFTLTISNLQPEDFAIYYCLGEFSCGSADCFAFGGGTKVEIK too.
≥ 25%

Now give it for humanized antibody #5 (antibody, V domains shown) VH: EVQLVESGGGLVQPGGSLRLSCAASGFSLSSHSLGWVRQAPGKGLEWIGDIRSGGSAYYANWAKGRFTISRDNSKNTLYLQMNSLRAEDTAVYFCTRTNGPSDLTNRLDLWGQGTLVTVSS VL: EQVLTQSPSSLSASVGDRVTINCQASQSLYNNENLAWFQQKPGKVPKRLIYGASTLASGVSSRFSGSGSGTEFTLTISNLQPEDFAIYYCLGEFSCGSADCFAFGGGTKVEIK too.
≥ 25%

Now give it for human-rabbit chimeric anti-CAPRIN-1 antibody (antibody, V domains shown) VH: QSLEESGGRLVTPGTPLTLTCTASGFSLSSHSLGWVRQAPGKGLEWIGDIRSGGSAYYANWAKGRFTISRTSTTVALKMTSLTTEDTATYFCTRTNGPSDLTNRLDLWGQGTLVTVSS VL: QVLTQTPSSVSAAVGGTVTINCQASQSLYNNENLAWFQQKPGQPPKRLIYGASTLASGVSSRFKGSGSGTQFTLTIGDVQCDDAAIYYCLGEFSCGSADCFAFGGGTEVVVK too.
≥ 21%

Now give it for humanized antibody #6 (antibody, V domains shown) VH: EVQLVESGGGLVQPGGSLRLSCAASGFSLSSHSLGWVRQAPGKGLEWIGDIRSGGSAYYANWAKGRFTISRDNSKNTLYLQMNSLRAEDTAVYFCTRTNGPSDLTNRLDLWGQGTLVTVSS VL: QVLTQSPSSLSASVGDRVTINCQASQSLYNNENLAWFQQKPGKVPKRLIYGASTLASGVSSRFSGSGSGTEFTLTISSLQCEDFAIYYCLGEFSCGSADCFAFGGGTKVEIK too.
≥ 28%

Now give it for humanized antibody #1 (antibody, V domains shown) VH: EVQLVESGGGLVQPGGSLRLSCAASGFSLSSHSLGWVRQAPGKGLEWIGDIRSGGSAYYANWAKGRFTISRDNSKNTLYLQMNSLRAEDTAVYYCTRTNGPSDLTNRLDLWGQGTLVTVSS VL: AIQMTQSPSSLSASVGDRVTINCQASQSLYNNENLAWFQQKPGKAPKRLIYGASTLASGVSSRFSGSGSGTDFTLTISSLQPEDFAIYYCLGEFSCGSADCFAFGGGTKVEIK too.
≥ 21%
